- experimental target: TRPA1 (Homo sapiens, UniProt O75762)
- Construct: host or cells: HEK293 or CHO
- Sequence (O75762 whole entry): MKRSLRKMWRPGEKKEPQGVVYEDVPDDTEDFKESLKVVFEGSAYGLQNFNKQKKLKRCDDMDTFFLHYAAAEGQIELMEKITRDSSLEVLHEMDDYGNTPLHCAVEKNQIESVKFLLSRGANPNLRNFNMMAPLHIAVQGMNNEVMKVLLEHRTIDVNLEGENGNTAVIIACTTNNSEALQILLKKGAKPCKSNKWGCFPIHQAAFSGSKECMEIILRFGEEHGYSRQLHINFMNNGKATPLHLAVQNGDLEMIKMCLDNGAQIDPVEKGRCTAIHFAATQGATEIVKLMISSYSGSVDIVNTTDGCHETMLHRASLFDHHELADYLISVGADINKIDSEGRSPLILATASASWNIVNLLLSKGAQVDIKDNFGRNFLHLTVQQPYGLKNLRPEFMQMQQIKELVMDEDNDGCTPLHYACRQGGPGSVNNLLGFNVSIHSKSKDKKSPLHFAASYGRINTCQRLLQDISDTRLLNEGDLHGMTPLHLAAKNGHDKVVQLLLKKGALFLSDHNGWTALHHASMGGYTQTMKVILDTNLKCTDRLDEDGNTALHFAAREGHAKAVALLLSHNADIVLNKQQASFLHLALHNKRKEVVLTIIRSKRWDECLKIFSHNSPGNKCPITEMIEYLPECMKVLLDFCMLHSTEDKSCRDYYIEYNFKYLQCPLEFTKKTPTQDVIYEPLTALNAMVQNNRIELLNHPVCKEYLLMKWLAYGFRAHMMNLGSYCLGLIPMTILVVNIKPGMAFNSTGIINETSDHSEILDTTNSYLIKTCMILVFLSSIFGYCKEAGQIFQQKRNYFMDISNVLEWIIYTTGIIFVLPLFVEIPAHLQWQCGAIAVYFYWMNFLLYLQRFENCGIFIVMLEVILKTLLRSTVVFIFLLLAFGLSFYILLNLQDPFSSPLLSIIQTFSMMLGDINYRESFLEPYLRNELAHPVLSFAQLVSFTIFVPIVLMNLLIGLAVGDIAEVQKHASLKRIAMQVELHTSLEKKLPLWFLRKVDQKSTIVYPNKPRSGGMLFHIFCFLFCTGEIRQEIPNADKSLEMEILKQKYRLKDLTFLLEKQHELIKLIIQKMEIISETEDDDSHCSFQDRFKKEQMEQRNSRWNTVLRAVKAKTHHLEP
- measurement description: Ion channel panel (IonWorks Barracuda): TRPA1
- Format: cell-based
- condition description: peptide at 0.2 μM; 100% = no change, <100% = inhibition
Known Activity of TRPA1 with peptide, expressed as a percentage of the reference compound of a selection of substances
Answer by giving the amount and then stating its unit.

Illustrative cases are given below, each with its answer.
>  <substance>
18 (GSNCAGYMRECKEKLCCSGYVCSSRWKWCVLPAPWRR) [compound 18]

>  <reported>
130%

$$$$
>  <substance>
25 (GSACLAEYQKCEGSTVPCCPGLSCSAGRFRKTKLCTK) [compound 25]

>  <reported>
124%

$$$$

// next item, Activity of TRPA1 with peptide, expressed as a percentage of the reference compound requested
Q: Identify measured Activity of TRPA1 with peptide, expressed as a percentage of the reference compound obtained with TRPA1 (Homo sapiens, UniProt O75762) for 26 (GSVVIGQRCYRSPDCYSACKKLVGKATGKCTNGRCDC) [compound 26] .
Ans: 109%

----------
- experimental target: NR2A (Homo sapiens, UniProt Q12879)
- Construct: host or cells: HEK293 or CHO
- measurement description: Ion channel panel (IonWorks Barracuda): NR2A
- Format: cell-based
- condition description: peptide at 0.2 μM; 100% = no change, <100% = inhibition
Known Activity of NR2A with peptide, expressed as a percentage of the reference compound of a selection of substances
Please reply with the bare figure in % and do not write the unit itself.

Illustrative cases are given below, each with its answer.
>  <substance>
11 (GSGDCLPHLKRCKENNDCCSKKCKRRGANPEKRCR) [compound 11]

>  <units of measure>
%

>  <reported>
103

$$$$
>  <substance>
4 (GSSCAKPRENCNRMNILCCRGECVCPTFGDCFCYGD) [compound 4]

>  <units of measure>
%

>  <reported>
106

$$$$
>  <substance>
25 (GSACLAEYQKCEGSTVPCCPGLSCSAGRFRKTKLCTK) [compound 25]

>  <units of measure>
%

>  <reported>
94

$$$$
>  <substance>
10 (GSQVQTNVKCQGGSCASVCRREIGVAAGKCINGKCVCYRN) [compound 10]

>  <units of measure>
%

>  <reported>
84

$$$$
>  <substance>
12 (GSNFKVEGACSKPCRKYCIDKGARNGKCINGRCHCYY) [compound 12]

>  <units of measure>
%

>  <reported>
94

$$$$
>  <substance>
13 (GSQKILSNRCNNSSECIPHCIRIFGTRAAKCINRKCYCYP) [compound 13]

>  <units of measure>
%

>  <reported>
94

$$$$

Q: Respond only with Activity of NR2A with peptide, expressed as a percentage of the reference compound recorded for 34 (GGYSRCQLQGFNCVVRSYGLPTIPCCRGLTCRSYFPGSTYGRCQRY) [compound 34]
Ans: 112

Q: Respond only with Activity of NR2A with peptide, expressed as a percentage of the reference compound recorded for 27 (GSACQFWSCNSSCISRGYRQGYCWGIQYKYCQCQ) [compound 27]
Ans: 98

Q: Respond only with Activity of NR2A with peptide, expressed as a percentage of the reference compound recorded for 20 (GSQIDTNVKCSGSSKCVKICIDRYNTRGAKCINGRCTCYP) [compound 20]
Ans: 98

Q: Respond only with Activity of NR2A with peptide, expressed as a percentage of the reference compound recorded for 29 (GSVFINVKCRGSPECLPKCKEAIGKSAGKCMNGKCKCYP) [compound 29]
Ans: 93

Q: Respond only with Activity of NR2A with peptide, expressed as a percentage of the reference compound recorded for 23 (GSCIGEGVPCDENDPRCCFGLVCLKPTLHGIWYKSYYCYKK) [compound 23]
Ans: 88

Q: Respond only with Activity of NR2A with peptide, expressed as a percentage of the reference compound recorded for 36 (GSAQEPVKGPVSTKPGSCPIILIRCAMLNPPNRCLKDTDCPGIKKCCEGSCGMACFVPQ) [compound 36]
Ans: 115

Q: Respond only with Activity of NR2A with peptide, expressed as a percentage of the reference compound recorded for 18 (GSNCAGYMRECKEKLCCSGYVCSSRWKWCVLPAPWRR) [compound 18]
Ans: 98

----------
- experimental target: Cav2.2 (Homo sapiens)
- Construct: host or cells: HEK293 or CHO
- Sequence (Q00975 whole entry): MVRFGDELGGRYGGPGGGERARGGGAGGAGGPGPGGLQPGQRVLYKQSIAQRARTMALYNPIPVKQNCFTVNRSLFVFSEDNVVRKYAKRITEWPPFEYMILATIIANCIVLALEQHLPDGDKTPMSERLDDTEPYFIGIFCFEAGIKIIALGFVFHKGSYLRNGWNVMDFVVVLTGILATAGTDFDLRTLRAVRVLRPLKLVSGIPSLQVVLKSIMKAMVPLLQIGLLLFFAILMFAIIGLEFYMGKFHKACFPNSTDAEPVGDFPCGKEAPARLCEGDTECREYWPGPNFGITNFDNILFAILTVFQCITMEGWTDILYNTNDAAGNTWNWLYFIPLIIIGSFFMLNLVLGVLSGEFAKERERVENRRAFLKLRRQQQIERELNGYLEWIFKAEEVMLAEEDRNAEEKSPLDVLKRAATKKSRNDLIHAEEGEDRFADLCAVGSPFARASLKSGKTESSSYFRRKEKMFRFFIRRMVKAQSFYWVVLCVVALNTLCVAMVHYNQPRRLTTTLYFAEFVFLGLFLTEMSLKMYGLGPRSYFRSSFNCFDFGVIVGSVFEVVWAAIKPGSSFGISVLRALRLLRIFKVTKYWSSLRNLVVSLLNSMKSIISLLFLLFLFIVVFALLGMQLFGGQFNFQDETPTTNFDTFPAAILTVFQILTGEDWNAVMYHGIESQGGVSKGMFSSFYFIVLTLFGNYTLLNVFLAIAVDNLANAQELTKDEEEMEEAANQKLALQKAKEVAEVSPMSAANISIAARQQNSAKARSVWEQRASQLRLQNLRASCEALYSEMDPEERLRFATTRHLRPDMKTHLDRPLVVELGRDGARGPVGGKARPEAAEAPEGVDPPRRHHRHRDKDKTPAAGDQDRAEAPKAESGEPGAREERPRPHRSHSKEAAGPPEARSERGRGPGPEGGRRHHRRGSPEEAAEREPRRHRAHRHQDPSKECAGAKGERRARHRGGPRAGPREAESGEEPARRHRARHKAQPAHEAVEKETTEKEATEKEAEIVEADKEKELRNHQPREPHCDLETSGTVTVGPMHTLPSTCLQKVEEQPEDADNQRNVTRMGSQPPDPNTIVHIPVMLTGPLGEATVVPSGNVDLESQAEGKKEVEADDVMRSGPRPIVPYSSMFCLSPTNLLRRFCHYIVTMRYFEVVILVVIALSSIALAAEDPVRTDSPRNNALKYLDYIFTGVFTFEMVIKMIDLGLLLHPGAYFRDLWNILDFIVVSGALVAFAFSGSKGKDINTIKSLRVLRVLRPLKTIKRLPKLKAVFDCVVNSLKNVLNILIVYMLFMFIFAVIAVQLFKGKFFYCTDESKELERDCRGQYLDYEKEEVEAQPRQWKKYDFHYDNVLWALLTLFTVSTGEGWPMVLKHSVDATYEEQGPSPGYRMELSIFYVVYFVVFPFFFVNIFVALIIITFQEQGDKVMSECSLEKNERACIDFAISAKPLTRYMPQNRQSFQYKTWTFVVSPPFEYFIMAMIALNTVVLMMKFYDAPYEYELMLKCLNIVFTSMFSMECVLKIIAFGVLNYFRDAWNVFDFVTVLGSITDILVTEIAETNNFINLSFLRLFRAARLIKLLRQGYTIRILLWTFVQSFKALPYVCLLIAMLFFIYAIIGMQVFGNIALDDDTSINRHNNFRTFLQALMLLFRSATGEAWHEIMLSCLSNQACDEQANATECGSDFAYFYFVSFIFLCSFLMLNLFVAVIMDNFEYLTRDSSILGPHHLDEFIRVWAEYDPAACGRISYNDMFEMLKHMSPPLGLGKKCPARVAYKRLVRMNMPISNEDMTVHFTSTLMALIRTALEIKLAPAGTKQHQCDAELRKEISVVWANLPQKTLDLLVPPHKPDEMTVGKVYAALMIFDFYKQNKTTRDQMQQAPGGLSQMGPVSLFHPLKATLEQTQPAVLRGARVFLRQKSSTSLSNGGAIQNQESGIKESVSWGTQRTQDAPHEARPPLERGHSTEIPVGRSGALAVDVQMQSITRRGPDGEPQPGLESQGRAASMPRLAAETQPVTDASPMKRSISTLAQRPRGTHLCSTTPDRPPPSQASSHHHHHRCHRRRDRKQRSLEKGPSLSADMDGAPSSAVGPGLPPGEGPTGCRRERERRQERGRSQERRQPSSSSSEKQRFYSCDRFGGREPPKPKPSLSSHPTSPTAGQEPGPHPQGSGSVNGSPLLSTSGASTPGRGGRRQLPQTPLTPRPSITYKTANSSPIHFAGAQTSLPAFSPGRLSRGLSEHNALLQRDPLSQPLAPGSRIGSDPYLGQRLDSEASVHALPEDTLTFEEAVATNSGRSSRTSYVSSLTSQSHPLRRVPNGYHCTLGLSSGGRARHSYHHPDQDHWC
- Sequence (P54289 25-1103, further chain): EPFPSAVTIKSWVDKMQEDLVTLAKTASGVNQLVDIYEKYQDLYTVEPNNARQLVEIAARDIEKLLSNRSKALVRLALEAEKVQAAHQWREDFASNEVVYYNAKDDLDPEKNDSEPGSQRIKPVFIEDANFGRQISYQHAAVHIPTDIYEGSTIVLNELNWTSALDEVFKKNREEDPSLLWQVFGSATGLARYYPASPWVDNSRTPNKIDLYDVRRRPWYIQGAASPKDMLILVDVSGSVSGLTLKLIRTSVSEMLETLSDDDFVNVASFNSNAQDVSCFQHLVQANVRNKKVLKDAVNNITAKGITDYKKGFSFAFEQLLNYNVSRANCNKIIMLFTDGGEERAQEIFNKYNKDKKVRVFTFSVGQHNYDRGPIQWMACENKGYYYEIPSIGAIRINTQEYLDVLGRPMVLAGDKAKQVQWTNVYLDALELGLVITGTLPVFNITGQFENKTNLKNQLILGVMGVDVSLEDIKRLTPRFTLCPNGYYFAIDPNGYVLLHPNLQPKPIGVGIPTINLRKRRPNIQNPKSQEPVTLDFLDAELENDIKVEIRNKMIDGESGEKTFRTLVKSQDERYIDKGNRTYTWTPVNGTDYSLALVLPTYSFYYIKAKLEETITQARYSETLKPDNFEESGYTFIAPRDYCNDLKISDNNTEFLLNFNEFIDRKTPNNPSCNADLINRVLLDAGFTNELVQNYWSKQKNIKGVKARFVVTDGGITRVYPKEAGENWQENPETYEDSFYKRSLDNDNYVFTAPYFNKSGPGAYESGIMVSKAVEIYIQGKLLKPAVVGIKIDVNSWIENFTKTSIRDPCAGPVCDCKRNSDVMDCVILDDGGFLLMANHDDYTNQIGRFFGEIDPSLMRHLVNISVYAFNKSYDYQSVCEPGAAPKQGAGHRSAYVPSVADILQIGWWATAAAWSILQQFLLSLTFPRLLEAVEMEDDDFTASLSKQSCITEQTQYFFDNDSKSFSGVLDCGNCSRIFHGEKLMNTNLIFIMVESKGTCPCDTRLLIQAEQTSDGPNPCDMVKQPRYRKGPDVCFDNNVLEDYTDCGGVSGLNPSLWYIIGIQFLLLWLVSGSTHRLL
- Sequence (P54284 whole entry, further chain): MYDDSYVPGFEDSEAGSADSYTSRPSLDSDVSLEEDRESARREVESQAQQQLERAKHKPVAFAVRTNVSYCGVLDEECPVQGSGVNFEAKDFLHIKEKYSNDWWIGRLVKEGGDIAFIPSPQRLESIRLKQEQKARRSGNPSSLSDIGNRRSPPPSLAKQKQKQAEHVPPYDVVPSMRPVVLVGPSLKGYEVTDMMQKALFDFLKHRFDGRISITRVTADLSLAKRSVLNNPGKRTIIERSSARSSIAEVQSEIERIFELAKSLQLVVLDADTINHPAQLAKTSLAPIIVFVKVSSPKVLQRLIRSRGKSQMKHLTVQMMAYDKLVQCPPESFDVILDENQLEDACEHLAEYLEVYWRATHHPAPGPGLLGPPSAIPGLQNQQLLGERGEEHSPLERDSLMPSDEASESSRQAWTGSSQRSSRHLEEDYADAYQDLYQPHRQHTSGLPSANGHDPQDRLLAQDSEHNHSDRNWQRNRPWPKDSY
- measurement description: cell-based
- condition description: peptide at 20 μM; 100% = no change, <100% = inhibition
property: Activity of Cav2.2 with peptide (percentage of the reference compound) (%)
Please reply with the bare figure in % and do not write the unit itself.

Illustrative cases are given below, each with its answer.
>  <substance>
34 (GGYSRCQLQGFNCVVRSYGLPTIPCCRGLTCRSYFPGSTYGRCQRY) [compound 34]

>  <units of measure>
%

>  <reported>
94

$$$$
>  <substance>
36 (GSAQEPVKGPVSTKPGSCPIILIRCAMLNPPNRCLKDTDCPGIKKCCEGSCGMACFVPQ) [compound 36]

>  <units of measure>
%

>  <reported>
87

$$$$
>  <substance>
13 (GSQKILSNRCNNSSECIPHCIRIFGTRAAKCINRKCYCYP) [compound 13]

>  <units of measure>
%

>  <reported>
100

$$$$

Q: Respond only with Activity of Cav2.2 with peptide (percentage of the reference compound) recorded for 3 (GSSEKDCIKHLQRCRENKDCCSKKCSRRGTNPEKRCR) [compound 3]
Ans: 110

Q: Respond only with Activity of Cav2.2 with peptide (percentage of the reference compound) recorded for 29 (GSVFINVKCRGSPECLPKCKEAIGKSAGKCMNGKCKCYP) [compound 29]
Ans: 100

Q: Respond only with Activity of Cav2.2 with peptide (percentage of the reference compound) recorded for 16 (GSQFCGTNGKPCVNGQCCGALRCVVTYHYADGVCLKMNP) [compound 16]
Ans: 104

Q: Respond only with Activity of Cav2.2 with peptide (percentage of the reference compound) recorded for 9 (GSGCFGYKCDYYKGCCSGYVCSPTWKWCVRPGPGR) [compound 9]
Ans: 102

Q: Respond only with Activity of Cav2.2 with peptide (percentage of the reference compound) recorded for 22 (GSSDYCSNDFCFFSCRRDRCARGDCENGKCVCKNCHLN) [compound 22]
Ans: 86

Q: Respond only with Activity of Cav2.2 with peptide (percentage of the reference compound) recorded for 27 (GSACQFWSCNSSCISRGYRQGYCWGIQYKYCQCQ) [compound 27]
Ans: 116

----------
- experimental target: α4β2 (Homo sapiens, UniProt P17787+P43681)
- Construct: host or cells: HEK293 or CHO
- measurement description: Ion channel panel (IonWorks Barracuda): α4β2
- Assay type: cell-based
- condition description: peptide at 0.2 μM; 100% = no change, <100% = inhibition
Known Activity of a4b2 with peptide, expressed as a percentage of the reference compound of a selection of substances
Please reply with the bare figure in % and do not write the unit itself.

Illustrative cases are given below, each with its answer.
>  <substance>
36 (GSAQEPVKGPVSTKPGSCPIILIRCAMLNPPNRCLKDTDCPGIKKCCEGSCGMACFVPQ) [compound 36]

>  <reported>
62

$$$$
>  <substance>
26 (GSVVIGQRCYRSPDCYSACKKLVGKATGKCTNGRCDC) [compound 26]

>  <reported>
85

$$$$
>  <substance>
3 (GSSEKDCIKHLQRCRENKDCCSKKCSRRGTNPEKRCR) [compound 3]

>  <reported>
93

$$$$

Q: Respond only with Activity of a4b2 with peptide, expressed as a percentage of the reference compound recorded for 21 (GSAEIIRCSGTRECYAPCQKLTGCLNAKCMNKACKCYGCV) [compound 21]
Ans: 102

Q: Respond only with Activity of a4b2 with peptide, expressed as a percentage of the reference compound recorded for 34 (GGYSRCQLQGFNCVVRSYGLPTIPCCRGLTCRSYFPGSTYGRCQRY) [compound 34]
Ans: 81

Q: Respond only with Activity of a4b2 with peptide, expressed as a percentage of the reference compound recorded for 6 (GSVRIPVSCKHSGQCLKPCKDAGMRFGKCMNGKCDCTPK) [compound 6]
Ans: 71

Q: Respond only with Activity of a4b2 with peptide, expressed as a percentage of the reference compound recorded for 29 (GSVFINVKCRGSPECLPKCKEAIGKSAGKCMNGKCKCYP) [compound 29]
Ans: 108

Q: Respond only with Activity of a4b2 with peptide, expressed as a percentage of the reference compound recorded for 23 (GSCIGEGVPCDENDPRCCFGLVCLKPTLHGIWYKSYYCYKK) [compound 23]
Ans: 87

Q: Respond only with Activity of a4b2 with peptide, expressed as a percentage of the reference compound recorded for 22 (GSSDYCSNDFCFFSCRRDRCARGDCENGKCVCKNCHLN) [compound 22]
Ans: 92
